The reported numbers originate from patent US7626031B2.

Listed molecules paired with reported pIC50
molecular target: IRK (Homo sapiens, UniProt P06213)
Sequence (P06213 28-1382): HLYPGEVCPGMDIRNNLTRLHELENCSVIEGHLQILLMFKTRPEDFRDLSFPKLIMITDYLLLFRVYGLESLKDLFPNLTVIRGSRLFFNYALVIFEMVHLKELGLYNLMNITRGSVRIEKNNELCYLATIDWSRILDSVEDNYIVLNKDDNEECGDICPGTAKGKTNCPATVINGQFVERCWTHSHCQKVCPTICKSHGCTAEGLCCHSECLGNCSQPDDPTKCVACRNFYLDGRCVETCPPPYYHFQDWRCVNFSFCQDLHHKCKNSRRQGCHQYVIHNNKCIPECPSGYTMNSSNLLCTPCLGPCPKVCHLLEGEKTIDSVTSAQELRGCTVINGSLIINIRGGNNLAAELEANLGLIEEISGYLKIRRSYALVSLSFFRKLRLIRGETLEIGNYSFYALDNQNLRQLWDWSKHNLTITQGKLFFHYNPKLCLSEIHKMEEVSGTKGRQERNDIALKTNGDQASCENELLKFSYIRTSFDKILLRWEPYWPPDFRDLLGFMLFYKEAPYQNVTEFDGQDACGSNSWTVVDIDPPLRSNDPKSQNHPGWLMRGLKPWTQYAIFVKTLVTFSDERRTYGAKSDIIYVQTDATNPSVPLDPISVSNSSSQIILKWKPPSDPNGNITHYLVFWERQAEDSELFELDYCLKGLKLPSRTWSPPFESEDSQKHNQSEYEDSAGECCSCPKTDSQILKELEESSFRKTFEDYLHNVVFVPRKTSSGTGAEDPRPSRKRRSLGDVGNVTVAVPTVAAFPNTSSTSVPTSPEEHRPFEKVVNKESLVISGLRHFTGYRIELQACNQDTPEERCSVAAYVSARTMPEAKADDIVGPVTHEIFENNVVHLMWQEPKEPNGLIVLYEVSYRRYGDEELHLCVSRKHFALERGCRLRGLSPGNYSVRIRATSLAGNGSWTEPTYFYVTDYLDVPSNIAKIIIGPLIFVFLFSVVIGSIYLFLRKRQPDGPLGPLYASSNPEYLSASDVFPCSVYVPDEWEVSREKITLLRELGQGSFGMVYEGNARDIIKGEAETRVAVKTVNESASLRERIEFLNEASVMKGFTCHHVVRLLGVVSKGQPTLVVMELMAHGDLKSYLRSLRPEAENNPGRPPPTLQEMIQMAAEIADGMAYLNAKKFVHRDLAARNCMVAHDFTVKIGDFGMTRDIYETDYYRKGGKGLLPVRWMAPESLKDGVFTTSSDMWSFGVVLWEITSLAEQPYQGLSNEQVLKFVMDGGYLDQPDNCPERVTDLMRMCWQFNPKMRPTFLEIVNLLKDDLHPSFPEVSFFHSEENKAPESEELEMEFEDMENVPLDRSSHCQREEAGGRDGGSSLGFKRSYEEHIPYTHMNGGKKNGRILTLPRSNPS
pIC50: −log10 of the molar value.

Example cases with answers are listed next.
Molecule	System tested	pIC50
O=C1Nc2ccc(NC3CCN(CCN4CCCCC4)CC3)cc2/C1=C(\c1cccc(F)c1)c1ncc[nH]1	IRK (Homo sapiens, UniProt P06213)	< 5.30
CC1(C)CC(Nc2ccc3c(c2)/C(=C(\c2ccccc2)c2nc4ccccc4[nH]2)C(=O)N3)CC(C)(C)N1	IRK (Homo sapiens, UniProt P06213)	5.30 to 6.30
CCN1CCC(Nc2ccc3c(c2)/C(=C(\c2cc(F)cc(F)c2)c2nc4cc(Cl)ccc4[nH]2)C(=O)N3)CC1	IRK (Homo sapiens, UniProt P06213)	< 5.30
CCN1CCC(Nc2ccc3c(c2)/C(=C(\c2ccc(C(F)(F)F)c(F)c2)c2ncc[nH]2)C(=O)N3)CC1	IRK (Homo sapiens, UniProt P06213)	< 5.30
CCN1CCC(Nc2ccc3c(c2)/C(=C(\c2ccc(N)cc2)c2nc4ccccc4[nH]2)C(=O)N3)CC1	IRK (Homo sapiens, UniProt P06213)	5.30 to 6.30
CCN1CCC(Nc2ccc3c(c2)/C(=C(/c2ncc[nH]2)c2ccccc2F)C(=O)N3)CC1	IRK (Homo sapiens, UniProt P06213)	5.30 to 6.30
COCCN1CCC(Nc2ccc3c(c2)/C(=C(\c2cccc(F)c2)c2nc4ccccc4[nH]2)C(=O)N3)CC1	IRK (Homo sapiens, UniProt P06213)	5.30 to 6.30
Cc1ccc(/C(=C2/C(=O)Nc3ccc(NC4CCN(C)CC4)cc32)c2ncc[nH]2)cc1	IRK (Homo sapiens, UniProt P06213)	5.30 to 6.30

Output pIC50 of COc1ccc2[nH]c(/C(=C3\C(=O)Nc4ccc(NC5CCN(Cc6ccccc6)C5)cc43)c3ccccc3)nc2c1 (stereo not shown)
< 5.30

Output pIC50 of COCCN1CCC(Nc2ccc3c(c2)/C(=C(\c2cc(F)cc(F)c2)c2ncc[nH]2)C(=O)N3)CC1
< 5.30

Output pIC50 of COCCN1CCC(Nc2ccc3c(c2)/C(=C(\c2cccc(F)c2)c2ncc[nH]2)C(=O)N3)CC1
5.30 to 6.30

Output pIC50 of CN(C)CCN1CCC(Nc2ccc3c(c2)/C(=C(\c2ccccc2)c2nc4ccccc4[nH]2)C(=O)N3)CC1
5.30 to 6.30

Output pIC50 of COCCN1CCC(Nc2ccc3c(c2)/C(=C(\c2ccccc2)c2ncc[nH]2)C(=O)N3)CC1
5.30 to 6.30

Output pIC50 of CCN1CCC(Nc2ccc3c(c2)/C(=C(/c2nc(C)c[nH]2)c2cccc(F)c2F)C(=O)N3)CC1
5.30 to 6.30

Output pIC50 of CCN1CCC(Nc2ccc3c(c2)/C(=C(\c2ccc(C)cc2)c2ncc[nH]2)C(=O)N3)CC1
5.30 to 6.30

Output pIC50 of CCN1CCC(Nc2ccc3c(c2)/C(=C(/c2ncc[nH]2)c2cccc(F)c2F)C(=O)N3)CC1
5.30 to 6.30

Output pIC50 of O=C1Nc2ccc(NC3CCNCC3)cc2/C1=C(\c1cccc(F)c1)c1ncc[nH]1
5.30 to 6.30

Output pIC50 of CCN1CCC(Nc2ccc3c(c2)/C(=C(/c2nc(C)c[nH]2)c2cc(F)c(Cl)cc2Cl)C(=O)N3)CC1
5.30 to 6.30

Output pIC50 of COCCN1CCC(Nc2ccc3c(c2)/C(=C(\c2ccc(F)c(Cl)c2)c2ncc[nH]2)C(=O)N3)CC1
< 5.30

Output pIC50 of CCN1CCC(Nc2ccc3c(c2)/C(=C(\c2ccc(C)c(F)c2)c2ncc[nH]2)C(=O)N3)CC1
5.30 to 6.30

Output pIC50 of CCCc1ccc(/C(=C2/C(=O)Nc3ccc(NC4CCN(CCOC)CC4)cc32)c2ncc[nH]2)cc1
5.30 to 6.30

Output pIC50 of CCN1CCC(Nc2ccc3c(c2)/C(=C(\c2ccc(F)cc2)c2ncc[nH]2)C(=O)N3)CC1
< 5.30

Output pIC50 of COCCN1CCC(Nc2ccc3c(c2)/C(=C(\c2ccc(C(F)(F)F)nc2)c2ncc[nH]2)C(=O)N3)CC1
< 5.30

Output pIC50 of COCCN1CCC(Nc2ccc3c(c2)/C(=C(\c2cc(F)cc(F)c2)c2nc4ccccc4[nH]2)C(=O)N3)CC1
< 5.30

Output pIC50 of CCN1CCC(Oc2ccc3c(c2)/C(=C(\c2cccc(Cl)c2)c2ncc[nH]2)C(=O)N3)CC1
5.30 to 6.30

Output pIC50 of O=C1Nc2ccc(OC3CCN(Cc4ccccc4)CC3)cc2/C1=C(\c1ccccc1)c1nc2ccccc2[nH]1
5.30 to 6.30

Output pIC50 of CCN1CCC(Nc2ccc3c(c2)/C(=C(\c2ccc(C(F)(F)F)c(F)c2)c2nc(C)c[nH]2)C(=O)N3)CC1
5.30 to 6.30
